Reference source: ChEMBL document CHEMBL4261538

system: Escherichia coli; test: Antibacterial activity against Escherichia coli at 50 ug/ml incubated for 24 hrs by agar well diffusion method; format: functional; settings: read-out: DIZ
Below, each entry is listed with its recorded zone of inhibition at 50 µg/mL.
Numbers only here, please. The scale is mm.

Study these solved cases before continuing.
INSERT INTO measurements (smiles_structure, readout_kind, measurement) VALUES
  ('Cl.O=C(Oc1ccc2c(=O)c3ccccc3oc2c1)[C@@H]1CCCN1', 'zone of inhibition at 50 µg/mL', 25),
  ('CC(C)(C)OC(=O)NCC(=O)Oc1ccc2c(=O)c3ccccc3oc2c1', 'zone of inhibition at 50 µg/mL', 3),
  ('Cl.N[C@@H](Cc1ccccc1)C(=O)Oc1ccc2c(=O)c3ccccc3oc2c1', 'zone of inhibition at 50 µg/mL', 27),
  ('Cl.N[C@@H](Cc1ccc(O)cc1)C(=O)Oc1ccc2c(=O)c3ccccc3oc2c1', 'zone of inhibition at 50 µg/mL', 26);

Let us examine a further case.
According to the records, this compound CC(C)(C)OC(=O)N[C@@H](Cc1ccccc1)C(=O)Oc1ccc2c(=O)c3ccccc3oc2c1 displays zone of inhibition at 50 µg/mL of 25
